tested on: PSMA^+ PC-3 PIP tumors; assay: MicroPET/CT imaging of mice transplanted with prostate cancer cell lines; format: in vivo, nude mouse; details: 60 min after injection
MEASUREMENT KIND: intake of mouse organ: Muscle (% ID/g)

These recorded examples may help you get a feel for the data.
O=C(O)CCC(NC(=O)NC(CCCCN(CC(=O)O)C(=O)COCCOCCNC(=O)C(CCCCNC(=O)CCCc1ccc(I)cc1)NC(=O)CN1CCN2CCN3CCN(CC1)CC(=O)[O][68Ga]([O]C(=O)C2)[O]C(=O)C3)C(=O)O)C(=O)O (stereo not shown) [[^68Ga]1h] :: 3.14
O=C(O)CCC(NC(=O)NC(CCCCN(CC(=O)O)C(=O)COCCOCCNC(=O)CN1CCN2CCN3CCN(CC1)CC(=O)[O][68Ga]([O]C(=O)C2)[O]C(=O)C3)C(=O)O)C(=O)O (stereo not shown) [[^68Ga]1e] :: 0.35

[P] O=C(O)CCC(NC(=O)NC(CCCCN(CC(=O)O)C(=O)COCCNC(=O)C(CCCCNC(=O)CCCc1ccc(I)cc1)NC(=O)CN1CCN2CCN3CCN(CC1)CC(=O)[O][68Ga]([O]C(=O)C2)[O]C(=O)C3)C(=O)O)C(=O)O (stereo not shown) [[^68Ga]1k]
[Q] Cc1ccc(CCCC(=O)NCCCCC(NC(=O)CN2CCN3CCN4CCN(CC2)CC(=O)[O][68Ga]([O]C(=O)C3)[O]C(=O)C4)C(=O)NCCOCCOCC(=O)N(CCCCC(NC(=O)NC(CCC(=O)O)C(=O)O)C(=O)O)CC(=O)O)cc1 (stereo not shown) [[^68Ga]1g]
Q: Between P and Q , which one shows the smaller intake of mouse organ: Muscle number? Select an item and report its label.
Result: Q

====

tested on: PSMA^+ PC-3 PIP tumors; test: MicroPET/CT imaging of mice transplanted with prostate cancer cell lines; format: in vivo, nude mouse; settings: 10 min after injection
MEASUREMENT KIND: intake of mouse organ: Muscle (% ID/g)

O=C(O)CCC(NC(=O)NC(CCCCN(CC(=O)O)C(=O)COCCOCCNC(=O)CN1CCN2CCN3CCN(CC1)CC(=O)[O][68Ga]([O]C(=O)C2)[O]C(=O)C3)C(=O)O)C(=O)O (stereo not drawn) [[^68Ga]1e] :: 1.46

[a] O=C(O)CCC(NC(=O)NC(CCCCN(CC(=O)O)C(=O)COCCOCCNC(=O)C(CCCCNC(=O)CCCc1ccc(I)cc1)NC(=O)CN1CCN2CCN3CCN(CC1)CC(=O)[O][68Ga]([O]C(=O)C2)[O]C(=O)C3)C(=O)O)C(=O)O (stereo not drawn) [[^68Ga]1h]
[b] Cc1ccc(CCCC(=O)NCCCCC(NC(=O)CN2CCN3CCN4CCN(CC2)CC(=O)[O][68Ga]([O]C(=O)C3)[O]C(=O)C4)C(=O)NCCOCCOCC(=O)N(CCCCC(NC(=O)NC(CCC(=O)O)C(=O)O)C(=O)O)CC(=O)O)cc1 (stereo not drawn) [[^68Ga]1g]
Q: Given the two records a and b , choose the one whose intake of mouse organ: Muscle value is lower. Record your answer as the label of the chosen record.
Result: b
